# Test system: carbapenem-susceptible A. baumannii isolates (n = 54)
# assayDetails: MIC, broth microdilution (EUCAST), carbapenem-susceptible A. baumannii isolates
# Assay type: cell-based, Acinetobacter baumannii
# appliedConditions: Acinetobacter baumannii, isolate Ab38; ST 866; ADC-2, OXA-385; in combinations ETZ fixed at 8 mg/L
Collected MIC values appear next to each entry.
Value expressed in µg/mL; do not type the unit.

Problem: Returns the measured MIC for the input molecule. Input: `C[n+]1ccn(C[C@@]2(C)[C@H](C(=O)[O-])N3C(=O)C[C@H]3S2(=O)=O)n1`
Solution: 4

Problem: Try `C[C@@H](O)[C@H]1C(=O)N2C(C(=O)O)=C(SCCN=CN)C[C@H]12` next.
Solution: 0.25

Problem: Similarly, CO/N=C(\C(=O)N[C@@H]1C(=O)N2C(C(=O)[O-])=C(C[N+]3(C)CCCC3)CS[C@H]12)c1csc(N)n1 [cefepime] ?
Solution: 8

Problem: Same lookup for `CC1(C)[C@H](C(=O)O)N2C(=O)C[C@H]2S1(=O)=O` , please.
Solution: 1
